B1: KRT15 (parent)
chain: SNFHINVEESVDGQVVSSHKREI

Variants of: B1
Experiment: protein stability index of a GFP-peptide fusion (GPS, HEK-293T) (PSI 1-6); higher = more stable;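 note: lentivirally expressed fusions sorted by FACS into six bins by GFP to DsRed ratio, PSI derived from sequencing read proportions per bin multiplied by bin number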
Conditions: c terminus: native
// reported protein stability index for each item listed
Give a plain numeric answer without units written out.

// solved cases for protein stability index follow
INSERT INTO results (variantnotation, observed) VALUES
  ('E22D', 4.97),
  ('I23C', 4.94),
  ('V7I', 2.18),
  ('E9N', 1.95),
  ('E9H', 2.1);

Turning now to a further variant:
// protein stability index value for G13K : 2.29

meta.source: the supplement of paper PMC10567573
